The compounds listed here are annotated with their half-life at 0.25 mM.
Assay: Degradation by the brain homogenate
Assay type: in vitro ADME
Conditions: rat brain homogenate 100 µL (10 mg protein/mL, 50 mM Tris-HCl pH 7.4) + 100 µL peptide 0.5 mM, final 200 µL, 37 °C, 0-60 min, HPLC read-out, ln 2/k; mean ± SEM of four independent experiments in duplicate; read-out: T0.5 (degradation half-life)
Numbered stars: 1 amine (or outer) side, 2 acyl side, 3 side chain; on linkers, the order of the positions; unused ones are H or OH. Square brackets hold non-standard residues; d marks the D form. Peptide text beside a SMILES is read from it. Nip(3R) = O=C([C@@H]1CCCN([*:1])C1)[*:2]; Dmt = Cc1cc(O)cc(C)c1C[C@H](N)C(=O)O; Inp = O=C(O)C1CCNCC1
Express the result in min but write the number alone.

Solved cases (3 shown):
- COMPOUND: "Cc1cc(O)cc(C)c1C[C@H](N)C(=O)N1CCC[C@H]1C(=O)N[C@@H](CC(C)C)C(=O)N[C@@H](CC(=O)O)C(=O)N[C@@H](CC(C)C)C(=O)N[C@@H](Cc1ccccc1)C(=O)O [analog 1, Dmt-Pro-Leu-Asp-Leu-Phe-OH] (H-[Dmt]PLDLF-OH)"
  half-life at 0.25 mM (min): 20.8
- COMPOUND: "CC(C)C[C@H](NC(=O)[C@@H]1CCCN(C(=O)[C@@H](N)Cc2ccc(O)cc2)C1)C(=O)N[C@@H](CC(=O)O)C(=O)N[C@@H](CC(C)C)C(=O)N[C@@H](Cc1ccccc1)C(=O)O [analog 2, Tyr-(R)-Nip-Leu-Asp-Leu-Phe-OH] (H-Y[Nip(3R)]LDLF-OH)"
  half-life at 0.25 mM (min): 25.5
- COMPOUND: "Cc1cc(O)cc(C)c1C[C@H](N)C(=O)N1CCC(C(=O)N[C@@H](CC(C)C)C(=O)N[C@@H](CC(=O)O)C(=O)N[C@@H](CC(C)C)C(=O)N[C@@H](Cc2ccccc2)C(=O)O)CC1 [analog 5, Dmt-Inp-Leu-Asp-Leu-Phe-OH] (H-[Dmt][Inp]LDLF-OH)"
  half-life at 0.25 mM (min): 38.5

QUERY: Identify measured half-life at 0.25 mM corresponding to CC(C)C[C@H](NC(=O)C1CCN(C(=O)[C@@H](N)Cc2ccc(O)cc2)CC1)C(=O)N[C@@H](CC(=O)O)C(=O)N[C@@H](CC(C)C)C(=O)N[C@@H](Cc1ccccc1)C(N)=O [analog 7, Tyr-Inp-Leu-Asp-Leu-Phe-NH2] (H-Y[Inp]LDLF-NH2)
RESULT: 30.7

QUERY: Consider the compound CC(C)C[C@H](NC(=O)C1CCN(C(=O)[C@@H](N)Cc2ccc(O)cc2)CC1)C(=O)N[C@@H](CC(=O)O)C(=O)N[C@@H](CC(C)C)C(=O)N[C@@H](Cc1ccccc1)C(=O)O [analog 3, Tyr-Inp-Leu-Asp-Leu-Phe-OH] (H-Y[Inp]LDLF-OH) and give its recorded half-life at 0.25 mM.
RESULT: 28.6

QUERY: Determine its reported half-life at 0.25 mM: Cc1cc(O)cc(C)c1C[C@H](N)C(=O)N1CCC[C@@H](C(=O)N[C@@H](CC(C)C)C(=O)N[C@@H](CC(=O)O)C(=O)N[C@@H](CC(C)C)C(=O)N[C@@H](Cc2ccccc2)C(=O)O)C1 [analog 4, Dmt-(R)-Nip-Leu-Asp-Leu-Phe-OH] (H-[Dmt][Nip(3R)]LDLF-OH)
RESULT: 30.4

###

Biological target: δ-opioid receptor (Homo sapiens, UniProt P41143)
Assay: Opioid receptor binding assay, [3H][Ile5,6]deltorphin-2 competition
Settings: CHO cell membranes, 0.5 nM [3H][Ile5,6]deltorphin-2, 25 °C, 120 min; mean ± SEM of four experiments in duplicate; read-out: Ki DOR
Square brackets hold non-standard residues; d marks the D form. Peptide text beside a SMILES is read from it. Dmt = Cc1cc(O)cc(C)c1C[C@H](N)C(=O)O; Inp = O=C(O)C1CCNCC1
MEASURED_ENDPOINT: Ki (nM)
Kindly provide the numeric value in nM only, without the unit symbol.

Here is how some compounds turned out for Ki.
- COMPOUND: "Cc1cc(O)cc(C)c1C[C@H](N)C(=O)N1CCC(C(=O)N[C@@H](CC(C)C)C(=O)N[C@@H](CC(=O)O)C(=O)N[C@@H](CC(C)C)C(=O)N[C@@H](Cc2ccccc2)C(=O)O)CC1 [analog 5, Dmt-Inp-Leu-Asp-Leu-Phe-OH] (H-[Dmt][Inp]LDLF-OH)"
  DISPLAY_UNIT: "nM"
  Ki: 13.1
- COMPOUND: "CC(C)C[C@H](NC(=O)C1CCN(C(=O)[C@@H](N)Cc2ccc(O)cc2)CC1)C(=O)N[C@@H](CC(=O)O)C(=O)N[C@@H](CC(C)C)C(=O)N[C@@H](Cc1ccccc1)C(N)=O [analog 7, Tyr-Inp-Leu-Asp-Leu-Phe-NH2] (H-Y[Inp]LDLF-NH2)"
  DISPLAY_UNIT: "nM"
  Ki: 773

Turning now to a further compound:
QUERY: Answer with the recorded Ki for the compound listed here: CC(C)C[C@H](NC(=O)C1CCN(C(=O)[C@@H](N)Cc2ccc(O)cc2)CC1)C(=O)N[C@@H](CC(=O)O)C(=O)N[C@@H](CC(C)C)C(=O)N[C@@H](Cc1ccccc1)C(=O)O [analog 3, Tyr-Inp-Leu-Asp-Leu-Phe-OH] (H-Y[Inp]LDLF-OH)
RESULT: 734

###

Target: κ-opioid receptor (Homo sapiens, UniProt P41145)
Construct: purchased; host or cells: CHO cells (membranes)
Experiment: Opioid receptor binding assay, [3H]U-69593 competition
Settings: CHO cell membranes, 0.5 nM [3H]U-69593, 25 °C, 120 min; mean ± SEM of four experiments in duplicate; read-out: Ki KOR
pKi: −log10 of the molar value. Ends that are not written are not given here.
# pKi listing for each entry below

- SUBSTANCE: "YPLDLF-NH2 [analog 6, Tyr-Pro-Leu-Asp-Leu-Phe-NH2]"
  ASSAY_SYSTEM: "κ-opioid receptor (Homo sapiens, UniProt P41145)"
  pKi: "< 6.00"

Lab note: next substance to report on.
QUERY: Give κ-opioid receptor (Homo sapiens, UniProt P41145) pKi for the following substance: YPLDLF [R-6, rubiscolin-6]
RESULT: < 6.00

###

Target: µ-opioid receptor (Homo sapiens, UniProt P35372)
Assay: Opioid receptor binding assay, [3H]DAMGO competition
Design: purchased; host or cells: CHO cells (membranes)
Conditions: CHO cell membranes, 0.5 nM [3H]DAMGO, 25 °C, 120 min; mean ± SEM of four experiments in duplicate; read-out: Ki MOR
Protocol: The opioid receptor binding assays were performed using the modified method described elsewhere. Briefly, commercial membranes of Chinese Hamster Ovary (CHO) cells transfected with human opioid receptors were used. The binding affinities for µ-, δ- and κ-opioid receptors were determined by radioligand competition analysis using [^3H]DAMGO, [^3H]deltorphin-2, and [^3H]U-69593, respectively. […] Non-specific binding was determined in the presence of 1 µM naloxone. […]
Ends that are not written are not given here.
MEASURED_ENDPOINT: Ki

- SUBSTANCE: "YPLDLF [R-6, rubiscolin-6]"
  Ki: "> 1 µM"

QUERY: Name the recorded Ki of the item YPLDLF-NH2 [analog 6, Tyr-Pro-Leu-Asp-Leu-Phe-NH2] in your answer.
RESULT: > 1 µM

###

Molecular target: µ-opioid receptor (Homo sapiens)
Assay: Calcium mobilisation assay, CHO cells with Gαqi5
Type: cell-based
Set-up: expressed in transfected cells; gift from Prof; Girolamo Calo, University of Padova
Settings: intrinsic activity, Emax ratio to Dermorphin; Inactive = inactive as an agonist up to 1 µM
Numbered stars: 1 amine (or outer) side, 2 acyl side, 3 side chain; on linkers, the order of the positions; unused ones are H or OH. Square brackets hold non-standard residues; d marks the D form. Peptide text beside a SMILES is read from it. Nip(3R) = O=C([C@@H]1CCCN([*:1])C1)[*:2]; Dmt = Cc1cc(O)cc(C)c1C[C@H](N)C(=O)O; Inp = O=C(O)C1CCNCC1
MEASURED_ENDPOINT: µ-opioid receptors α ± SEM

Solved entries (count: 5):
- MOLECULE: "CC(C)C[C@H](NC(=O)C1CCN(C(=O)[C@@H](N)Cc2ccc(O)cc2)CC1)C(=O)N[C@@H](CC(=O)O)C(=O)N[C@@H](CC(C)C)C(=O)N[C@@H](Cc1ccccc1)C(=O)O [analog 3, Tyr-Inp-Leu-Asp-Leu-Phe-OH] (H-Y[Inp]LDLF-OH)"
  ASSAY_SYSTEM: "µ-opioid receptor (Homo sapiens)"
  µ-opioid receptors α ± SEM: "Inactive"
- MOLECULE: "CC(C)C[C@H](NC(=O)C1CCN(C(=O)[C@@H](N)Cc2ccc(O)cc2)CC1)C(=O)N[C@@H](CC(=O)O)C(=O)N[C@@H](CC(C)C)C(=O)N[C@@H](Cc1ccccc1)C(N)=O [analog 7, Tyr-Inp-Leu-Asp-Leu-Phe-NH2] (H-Y[Inp]LDLF-NH2)"
  ASSAY_SYSTEM: "µ-opioid receptor (Homo sapiens)"
  µ-opioid receptors α ± SEM: "Inactive"
- MOLECULE: "Cc1cc(O)cc(C)c1C[C@H](N)C(=O)N1CCC[C@@H](C(=O)N[C@@H](CC(C)C)C(=O)N[C@@H](CC(=O)O)C(=O)N[C@@H](CC(C)C)C(=O)N[C@@H](Cc2ccccc2)C(=O)O)C1 [analog 4, Dmt-(R)-Nip-Leu-Asp-Leu-Phe-OH] (H-[Dmt][Nip(3R)]LDLF-OH)"
  ASSAY_SYSTEM: "µ-opioid receptor (Homo sapiens)"
  µ-opioid receptors α ± SEM: "Inactive"
- MOLECULE: "Cc1cc(O)cc(C)c1C[C@H](N)C(=O)N1CCC[C@H]1C(=O)N[C@@H](CC(C)C)C(=O)N[C@@H](CC(=O)O)C(=O)N[C@@H](CC(C)C)C(=O)N[C@@H](Cc1ccccc1)C(=O)O [analog 1, Dmt-Pro-Leu-Asp-Leu-Phe-OH] (H-[Dmt]PLDLF-OH)"
  ASSAY_SYSTEM: "µ-opioid receptor (Homo sapiens)"
  µ-opioid receptors α ± SEM: "0.22 ± 0.05"
- MOLECULE: "Cc1cc(O)cc(C)c1C[C@H](N)C(=O)N1CCC(C(=O)N[C@@H](CC(C)C)C(=O)N[C@@H](CC(=O)O)C(=O)N[C@@H](CC(C)C)C(=O)N[C@@H](Cc2ccccc2)C(=O)O)CC1 [analog 5, Dmt-Inp-Leu-Asp-Leu-Phe-OH] (H-[Dmt][Inp]LDLF-OH)"
  ASSAY_SYSTEM: "µ-opioid receptor (Homo sapiens)"
  µ-opioid receptors α ± SEM: "0.11 ± 0.04"

QUERY: In one line, give reported µ-opioid receptors α ± SEM of the entry CC(C)C[C@H](NC(=O)[C@@H]1CCCN(C(=O)[C@@H](N)Cc2ccc(O)cc2)C1)C(=O)N[C@@H](CC(=O)O)C(=O)N[C@@H](CC(C)C)C(=O)N[C@@H](Cc1ccccc1)C(=O)O [analog 2, Tyr-(R)-Nip-Leu-Asp-Leu-Phe-OH] (H-Y[Nip(3R)]LDLF-OH) .
RESULT: Inactive
